Tested on: Acinetobacter baumannii C181
Assay: MIC on clinically isolated bacteria
Assay type: cell-based
Details: Acinetobacter baumannii C181; read-out: Minimum Inhibitory Concentration (MIC)
Could you please report measured MIC for the items listed next?
Please give a number only; it is taken to be in µg/mL.

[Q] Tell me its MIC given CC1(C)[C@H](NC(=O)/C(=N\O[C@@H](COc2ccc3c(c2)CN(/C(=N\[C@@H]2CCCNC2)N[C@@H]2CCCNC2)C3)C(=O)O)c2csc(N)n2)C(=O)N1OS(=O)(=O)O [Compound 46] as the entry.
[A] 4

[Q] Tell me its MIC given C[C@H]1[C@H](NC(=O)/C(=N\OC(C)(C)C(=O)O)c2csc(N)n2)C(=O)N1S(=O)(=O)O [Aztreonam, reference compound] as the entry.
[A] 64

[Q] Tell me its MIC given C[C@@H](O)[C@H]1C(=O)N2C(C(=O)O)=C(S[C@@H]3CN[C@H](C(=O)N(C)C)C3)[C@H](C)[C@H]12 [Meropenem, reference compound] as the entry.
[A] 128

[Q] Tell me its MIC given CC1(C)[C@H](NC(=O)/C(=N\O[C@@H](COc2ccc3c(c2)CN(C(=N)NCCN)C3)C(=O)O)c2csc(N)n2)C(=O)N1OS(=O)(=O)O [Compound 44] as the entry.
[A] 2
